Molecular target: T1, Cyno CD33 full length (cynomolgus monkey)
T1 construct: Stably expressed on HEK293F cells by lentiviral transduction; also called Cyno CD33 (on HEK293F cells)
T1 sequence (chain, as listed by the source limits assumed): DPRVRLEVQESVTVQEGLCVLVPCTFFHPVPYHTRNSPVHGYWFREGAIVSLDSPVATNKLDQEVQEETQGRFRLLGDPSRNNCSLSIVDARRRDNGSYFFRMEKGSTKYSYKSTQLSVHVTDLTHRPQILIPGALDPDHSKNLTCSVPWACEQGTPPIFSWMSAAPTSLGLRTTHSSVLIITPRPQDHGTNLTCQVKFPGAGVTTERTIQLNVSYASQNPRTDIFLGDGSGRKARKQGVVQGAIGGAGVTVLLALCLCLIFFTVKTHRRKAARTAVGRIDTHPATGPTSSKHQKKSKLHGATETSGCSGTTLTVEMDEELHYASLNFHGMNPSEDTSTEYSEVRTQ
Assay: flow cytometry on HEK293F cells expressing cyno CD33
propertyName: mean fluorescence intensity at 60 nM mAb (MFI)
One number for each entry, in MFI.

// query So what's the measured mean fluorescence intensity at 60 nM mAb for this one? C33B914 (antibody, V domains shown, OMNIMouse mAb; HC C33H254, LC C33L120 (same IDs as C33B906); also called C33F552) VH: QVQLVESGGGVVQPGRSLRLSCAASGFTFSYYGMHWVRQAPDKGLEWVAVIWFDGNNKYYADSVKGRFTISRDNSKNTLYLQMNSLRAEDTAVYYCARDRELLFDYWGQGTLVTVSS VL: SYELTQPPSVSVSPGQTASITCSGDELGDMYACWYQQKPGQSPLVVIYQDSKRPSGIPERFSGSNSGNTATLTISGTQAMDEAAYYCQTWDTRIAVFGGGTNLTVLG
// result 45000
